test_description: Human liver microsome stability test
Assay type: in vitro ADME
condition_set: human liver microsomes (Corning), NADPH, 37° C.
measurement_name: half-life at 1 μM (min)

compound | scale_unit | half-life at 1 μM
O=C(Cc1ccc(-c2ccc(OCCN3C[C@H]4COC[C@H]4C3)cc2Cl)cn1)NCc1ccccc1 | min | 10.7

P = C[C@@H]1COCCN1CCOc1ccc(-c2ccc(CC(=O)NCc3ccccc3)nc2)c(F)c1 [Compound I-24B]
Q = O=C(Cc1ccc(-c2ccc(OCCNC3CN(C(=O)CC4CC4)C3)cc2)cn1)NCc1ccccc1
Higher half-life at 1 μM: P or Q ? Let me know the label of the one you choose. Q
(Q: 42.8 min, P: 13.9 min)

* * *

test_description: Pharmacokinetic test in mice
Type: in vivo
condition_set: mouse, plasma; male ICR mice, intravenous injection 1 mg/kg
measurement_name: AUC(0-t) (ng·h/mL)
Numbers only here, please. The scale is ng·h/mL.

Report AUC(0-t) for "O=C(Cc1ccc(-c2ccc(OCCN3C[C@H]4COC[C@H]4C3)cc2F)cn1)NCc1ccccc1" 299

* * *

test_description: Pharmacokinetic test in mice
Assay type: in vivo
condition_set: male, ICR, mouse, plasma; mice, oral gavage 5 mg/kg
measurement_name: AUC(0-t) (ng·h/mL)

1 = C[C@H]1COCCN1CCOc1ccc(-c2ccc(CC(=O)NCc3ccccc3)nc2)c(F)c1 [Compound I-24A]
2 = O=C(Cc1ccc(-c2ccc(OCCN3C[C@H]4COC[C@H]4C3)cc2Cl)cn1)NCc1ccccc1
Between 1 and 2 , which one shows the smaller AUC(0-t) number? Let me know the label of the one you choose. 2

* * *

test_description: Pharmacokinetic test in mice
Type: in vivo
condition_set: mouse, plasma; male ICR mice, intravenous injection 1 mg/kg
measurement_name: clearance (mL/min/kg)
Numbers only here, please. The scale is mL/min/kg.

Report clearance for "O=C(Cc1ccc(-c2ccc(OCCN3C[C@H]4COC[C@H]4C3)cc2F)cn1)NCc1ccccc1" 47.7

* * *

System: A-431 cells
test_description: Inhibition of A-431 cell proliferation
Assay type: cell-based
condition_set: Homo sapiens, 96 h, incubated 4 days
measurement_name: IC50 (nM)

Worked cases, answers included:
compound | scale_unit | IC50
Cc1cc(OCCN2C[C@H]3COC[C@H]3C2)ccc1-c1ccc(CC(=O)NCc2ccccc2F)nc1 | nM | 49.4
O=C(Cc1ccc(-c2ccc(OCCN3CC4(C3)CS(=O)(=O)C4)cc2)cn1)NCc1ccccc1 | nM | 22.3
O=C(Cc1ccc(-c2ccc(OCCN3C[C@H]4COC[C@H]4C3)cc2Cl)cn1)NCc1ccccc1F | nM | 14.8
C[C@H]1COCCN1CCOc1ccc(-c2ccc(CC(=O)NCc3ccccc3F)nc2)c(F)c1 | nM | 9.22
C[C@@H]1COCCN1CCOc1ccc(-c2ccc(CC(=O)NCc3ccccc3)nc2)c(F)c1 [Compound I-24B] | nM | 6.47

P = C[C@H]1COCCN1CCOc1ccc(-c2ccc(CC(=O)NCc3ccccc3)nc2)c(F)c1 [Compound I-24A]
Q = N#Cc1cc(OCCN2CCOCC2)ccc1-c1ccc(CC(=O)NCc2ccccc2)nc1
R = O=C(Cc1ccc(-c2ccc(OCCN3C[C@H]4COC[C@H]4C3)cc2F)cn1)NCc1ccccc1
Put the entries in order of IC50, starting with the largest number. The labels, placed in the requested order, form the answer. R, P, Q
(R: 11.6 nM, P: 6.74 nM, Q: 3.1 nM)

Data provenance is patent US20250115613A1.
